# ELISA OD listing for each entry below
- ASSAY_SYSTEM: T1, cynomolgus TNFR2 (Sino 90102-C08H) (cynomolgus, UniProt A0A2K5VET2 132-366)
- T1 construct: also called CynoTNFR2 (His tag)
- T1 sequence: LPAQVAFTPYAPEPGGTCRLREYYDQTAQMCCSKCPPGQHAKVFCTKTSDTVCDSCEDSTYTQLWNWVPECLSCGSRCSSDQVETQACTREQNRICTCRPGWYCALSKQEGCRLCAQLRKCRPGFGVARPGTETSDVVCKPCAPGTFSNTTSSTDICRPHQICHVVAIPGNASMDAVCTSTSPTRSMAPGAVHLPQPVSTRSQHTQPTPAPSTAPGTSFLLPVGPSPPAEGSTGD
- EXPERIMENT_DESCRIPTION: ELISA, coated antigen 0.5 ug/ml, antibody 28 ng/ml
Your answer should be a plain number; it is taken to be in OD.

The examples below pair each entry with its known result.
{"BINDER": "TNFR2 antibody #224 (antibody, V domains shown) VH: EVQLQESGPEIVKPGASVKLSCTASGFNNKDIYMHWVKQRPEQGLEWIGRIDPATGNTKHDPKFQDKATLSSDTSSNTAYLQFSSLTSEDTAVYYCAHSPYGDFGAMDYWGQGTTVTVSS VL: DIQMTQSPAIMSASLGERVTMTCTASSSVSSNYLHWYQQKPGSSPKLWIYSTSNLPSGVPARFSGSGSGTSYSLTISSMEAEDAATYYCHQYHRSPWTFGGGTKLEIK", "RECORDED_METRIC": "ELISA OD", "RESULT_UNITS": "OD", "NUMERIC_VALUE": 2.66}
{"BINDER": "TNFR2 antibody #001 (antibody, V domains shown, also called antibody #1) VH: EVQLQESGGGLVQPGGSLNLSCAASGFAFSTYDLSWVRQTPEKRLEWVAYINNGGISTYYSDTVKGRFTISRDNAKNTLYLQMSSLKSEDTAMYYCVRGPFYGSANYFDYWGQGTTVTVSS VL: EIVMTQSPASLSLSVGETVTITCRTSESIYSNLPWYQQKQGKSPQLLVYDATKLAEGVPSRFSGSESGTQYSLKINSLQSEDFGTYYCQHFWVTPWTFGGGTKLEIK", "RECORDED_METRIC": "ELISA OD", "RESULT_UNITS": "OD", "NUMERIC_VALUE": 2.64}

Note down ELISA OD recorded for TNFR2 antibody #226 (antibody, V domains shown) VH: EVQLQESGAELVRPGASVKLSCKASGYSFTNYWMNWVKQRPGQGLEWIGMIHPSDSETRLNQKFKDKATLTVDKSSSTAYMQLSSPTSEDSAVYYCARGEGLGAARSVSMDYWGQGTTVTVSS VL: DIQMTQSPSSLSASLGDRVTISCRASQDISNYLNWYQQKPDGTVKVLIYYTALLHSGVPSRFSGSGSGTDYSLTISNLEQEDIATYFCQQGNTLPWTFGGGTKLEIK
3.28

Note down ELISA OD recorded for TNFR2 antibody #133 (antibody, V domains shown) VH: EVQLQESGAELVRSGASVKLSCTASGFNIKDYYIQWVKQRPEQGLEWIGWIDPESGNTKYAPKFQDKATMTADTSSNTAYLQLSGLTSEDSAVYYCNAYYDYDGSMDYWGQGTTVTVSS VL: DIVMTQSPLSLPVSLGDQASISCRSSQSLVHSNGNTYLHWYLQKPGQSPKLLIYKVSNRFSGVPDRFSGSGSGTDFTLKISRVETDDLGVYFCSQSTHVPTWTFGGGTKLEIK
3.18

Note down ELISA OD recorded for TNFR2 antibody #352 (antibody, V domains shown) VH: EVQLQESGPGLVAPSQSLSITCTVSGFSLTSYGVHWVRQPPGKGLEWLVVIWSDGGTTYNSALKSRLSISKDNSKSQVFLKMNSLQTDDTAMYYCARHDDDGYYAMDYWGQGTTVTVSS VL: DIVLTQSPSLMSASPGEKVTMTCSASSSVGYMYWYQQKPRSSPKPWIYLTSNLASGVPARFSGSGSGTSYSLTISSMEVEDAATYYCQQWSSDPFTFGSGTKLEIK
3.12
